Molecular target: T1, human IL-1RAcP on 293T/17-FR cells (human, UniProt Q9NPH3 21-570)
T1 sequence (looked up): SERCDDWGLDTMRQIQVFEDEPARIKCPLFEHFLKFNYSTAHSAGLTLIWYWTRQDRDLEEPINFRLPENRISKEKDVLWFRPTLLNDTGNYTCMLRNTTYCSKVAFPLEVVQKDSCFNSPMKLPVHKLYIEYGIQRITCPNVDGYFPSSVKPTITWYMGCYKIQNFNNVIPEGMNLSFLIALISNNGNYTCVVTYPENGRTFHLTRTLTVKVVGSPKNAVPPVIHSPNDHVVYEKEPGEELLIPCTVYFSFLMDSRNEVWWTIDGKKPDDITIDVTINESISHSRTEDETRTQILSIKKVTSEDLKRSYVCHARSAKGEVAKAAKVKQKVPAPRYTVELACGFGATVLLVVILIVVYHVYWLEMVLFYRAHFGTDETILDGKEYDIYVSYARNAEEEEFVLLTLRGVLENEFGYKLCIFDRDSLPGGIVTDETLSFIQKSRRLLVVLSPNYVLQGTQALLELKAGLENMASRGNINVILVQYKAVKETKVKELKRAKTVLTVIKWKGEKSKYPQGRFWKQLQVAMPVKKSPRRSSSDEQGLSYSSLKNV
Assay: cell-based or functional assay
measure-name: primary supernatant functional assay (% inh.), NF-kB luciferase reporter (%)
Answers are plain numbers, in %.

// below: answered binders
# binder, recorded-value
records = [
    ("P013.S.01.B.D02 (antibody, V domains shown, rabbit monoclonal antibody; also called P013.A.00022.E06) VH: LEQSGGGAEGGLVKPGGSLELCCKASGFSLTTNYWICWVRQAPGKGLEWIGCIYANSVGSTYYASWVNGRFTLSRDIDQSTGCLQLNSLTAADTAMYYCARVDPGYSFDAFDPWGPGTLVTVSS VL: ALVMTQTPSPVSAAVGGTVTINCQASEDIYSNLAWFQQKPGQPPKLLIYRASTLASGVPSRFSGSGSGTEFTLTISALQSDDAATYYCLGVRTYFNTLNNSFGGGTEVVVK", 99),
    ("P013.S.01.B.E05 (antibody, V domains shown, rabbit monoclonal antibody; also called P013.A.00086.F02) VH: QSLEESGGDLVKPGASLTLTCTASGISFSSSDFMCWVRQAPGKGLEWIACIYAGSSVSIYYATWAKGRFTISKASSTTVTLQMASLTVADTATYFCARSTGSVGRGFNLWGQGTLVTVSS VL: AQVLTQTPSPVSAAVGGTVTISCQASQSVYNSNHLSWYQQKPGQPPRLLIYSASTLASGVPSRFKGSGSGTQFTLTISGVQSDDAATYYCQGEFSCVSADCIAFGGGTEVVVK", 98),
]

Consider now this further binder.
Look up primary supernatant functional assay (% inh.), NF-kB luciferase reporter of P013.S.02.B.B01 (antibody, V domains shown, rabbit monoclonal antibody; also called P013.A.00088.A11) VH: QSLEESGGRLVTPGTPLTLTCTVSGFSLSGYAMSWVRQAPGKGLEWIGIIYAGSGGTYYASWVKGRFTISKTSTTVDLKITSLTTEDTATYFCARAVPDDSAGKKLWGQGTLVTVSS VL: DIVMTQTPASVEAAVGGTITINCQASENIYSSLAWYQQKPGQPPKLLIYDASTLASGVSSRFKGSGSGTQFTLTISGVQSDDAATYYCQSYYCSVSSSCGYGFGGGTEVVVK and report it.
95

// provenance: patent US20190106487A1
